kinase still bound, per cent of control listing for selected compounds.
Molecular target: PRKD2 (human)
Test: KINOMEscan competition binding
Settings: compound 10.0 µM
Field: numeric (%). Do not append units.

- Structure As Smiles: "COc1cc(N2CCN(C)CC2)ccc1Nc1ncc2c(n1)N(C)c1ccccc1N(C)C2=O"
  Measured Metric: "kinase still bound, per cent of control"
  Observed: 100
- Structure As Smiles: "COc1cc(N2CCC(O)CC2)ccc1Nc1ncc2c(n1)N1CCc3cccc(c31)C(=O)N2C"
  Measured Metric: "kinase still bound, per cent of control"
  Observed: 45
- Structure As Smiles: "CN1C(=O)c2ccccc2N(C)c2nc(NS(=O)(=O)c3ccc(N)cc3)ncc21"
  Measured Metric: "kinase still bound, per cent of control"
  Observed: 100
- Structure As Smiles: "O=C1NC(=O)/C(=C/c2c[nH]c(=O)c(-c3ccc(N4CCNCC4)nc3)c2)S1"
  Measured Metric: "kinase still bound, per cent of control"
  Observed: 8.3
- Structure As Smiles: "COc1cc(N2CCN(C)CC2)ccc1Nc1ncc2c(n1)N1CCC[C@H]1CC(=O)N2C"
  Measured Metric: "kinase still bound, per cent of control"
  Observed: 2.6

Exercise: Tell me reported kinase still bound, per cent of control for CN1CCN(c2ccc(C(=O)Nc3ncc4c(n3)N(C)c3ccccc3C(=O)N4C)cc2)CC1 , tested with PRKD2 (human).
Solution: 100

Exercise: COc1cc(N2CCN(C)CC2)ccc1Nc1ncc2c(n1)Nc1ccccc1NC2=O , same question.
Solution: 100

---

Molecular target: PKN2 (human) (UniProt Q16513)
Sequence (Q16513 whole entry, looked up): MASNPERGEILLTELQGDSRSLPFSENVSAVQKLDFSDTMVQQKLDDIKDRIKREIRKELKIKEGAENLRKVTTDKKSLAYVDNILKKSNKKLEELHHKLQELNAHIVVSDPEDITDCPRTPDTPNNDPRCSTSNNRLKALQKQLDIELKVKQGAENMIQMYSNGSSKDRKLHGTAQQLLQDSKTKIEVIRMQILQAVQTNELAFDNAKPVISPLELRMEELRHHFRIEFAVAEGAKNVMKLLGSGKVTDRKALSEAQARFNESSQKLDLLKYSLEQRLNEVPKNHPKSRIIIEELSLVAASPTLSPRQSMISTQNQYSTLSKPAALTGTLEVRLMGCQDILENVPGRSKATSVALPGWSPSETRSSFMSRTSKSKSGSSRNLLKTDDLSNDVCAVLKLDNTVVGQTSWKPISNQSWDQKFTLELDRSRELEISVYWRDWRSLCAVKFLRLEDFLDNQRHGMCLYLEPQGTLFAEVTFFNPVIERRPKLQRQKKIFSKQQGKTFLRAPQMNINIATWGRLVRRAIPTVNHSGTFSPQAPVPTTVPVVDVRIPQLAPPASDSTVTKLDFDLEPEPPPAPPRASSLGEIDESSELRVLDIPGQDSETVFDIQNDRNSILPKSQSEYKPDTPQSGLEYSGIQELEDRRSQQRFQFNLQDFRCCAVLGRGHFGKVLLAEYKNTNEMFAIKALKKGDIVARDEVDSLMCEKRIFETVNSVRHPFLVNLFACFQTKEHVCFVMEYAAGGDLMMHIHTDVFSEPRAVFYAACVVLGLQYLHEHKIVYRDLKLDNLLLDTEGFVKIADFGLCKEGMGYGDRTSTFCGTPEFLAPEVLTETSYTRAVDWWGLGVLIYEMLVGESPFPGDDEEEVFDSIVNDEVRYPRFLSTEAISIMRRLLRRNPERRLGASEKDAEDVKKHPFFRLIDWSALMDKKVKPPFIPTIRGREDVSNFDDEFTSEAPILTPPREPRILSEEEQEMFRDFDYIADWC
Test: KINOMEscan competition binding
Conditions: compound 10.0 µM
Measured Metric: kinase still bound, per cent of control

// solved cases for kinase still bound, per cent of control follow
- Structure As Smiles: "COc1cc(N2CCC(O)CC2)ccc1Nc1ncc2c(n1)N1CCc3cccc(c31)C(=O)N2C"
  Measured On: "PKN2 (human) (UniProt Q16513)"
  Measured Metric: "kinase still bound, per cent of control"
  Observed: "100%"
- Structure As Smiles: "CS(=O)(=O)Nc1ccc(-c2cc(/C=C3\\SC(=N)NC3=O)c[nH]c2=O)cc1"
  Measured On: "PKN2 (human) (UniProt Q16513)"
  Measured Metric: "kinase still bound, per cent of control"
  Observed: "15%"
- Structure As Smiles: "CN1C(=O)c2ccccc2N(C)c2nc(Nc3ccc(N4CCC(O)CC4)cc3)ncc21"
  Measured On: "PKN2 (human) (UniProt Q16513)"
  Measured Metric: "kinase still bound, per cent of control"
  Observed: "92%"
- Structure As Smiles: "COc1cc(N2CCN(C)CC2)ccc1Nc1ncc2c(n1)Nc1ccccc1NC2=O"
  Measured On: "PKN2 (human) (UniProt Q16513)"
  Measured Metric: "kinase still bound, per cent of control"
  Observed: "100%"

Exercise: Tell me reported kinase still bound, per cent of control for CN1CCN(c2ccc(C(=O)Nc3ncc4c(n3)N(C)c3ccccc3C(=O)N4C)cc2)CC1 , tested with PKN2 (human) (UniProt Q16513).
Solution: 78%

Exercise: O=C1NC(=O)/C(=C/c2c[nH]c(=O)c(-c3ccc(N4CCNCC4)nc3)c2)S1 , same question.
Solution: 41%

Exercise: N=C1NC(=O)/C(=C/c2ccc(-c3cncc4ccccc34)o2)S1 , same question.
Solution: 32%

---

Target: PTK6 (human) (UniProt Q13882)
Sequence (Q13882 whole entry, looked up): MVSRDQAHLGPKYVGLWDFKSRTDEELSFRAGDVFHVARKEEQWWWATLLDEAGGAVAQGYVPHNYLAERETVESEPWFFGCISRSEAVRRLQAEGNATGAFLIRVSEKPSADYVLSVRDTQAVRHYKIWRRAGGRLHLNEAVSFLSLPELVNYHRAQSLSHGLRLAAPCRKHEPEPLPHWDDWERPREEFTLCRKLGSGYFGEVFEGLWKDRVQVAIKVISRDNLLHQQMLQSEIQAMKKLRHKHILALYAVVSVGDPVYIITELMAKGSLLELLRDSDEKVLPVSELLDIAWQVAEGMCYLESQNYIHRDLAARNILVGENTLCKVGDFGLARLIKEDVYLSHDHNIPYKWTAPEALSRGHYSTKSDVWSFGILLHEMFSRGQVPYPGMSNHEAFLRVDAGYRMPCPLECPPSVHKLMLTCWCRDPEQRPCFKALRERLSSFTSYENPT
Measured Metric: Kd (µM)
Field: numeric (µM). Do not append units.

Exercise: Find the recorded Kd belonging to COc1cc(N2CCN(C)CC2)ccc1Nc1ncc2c(n1)N(C)c1ccccc1C(=O)N2 and report it.
Solution: 0.037

---

kinase still bound, per cent of control listing for selected compounds.
Molecular target: EPHA6 (human) (UniProt Q9UF33)
Sequence (Q9UF33 whole entry, looked up): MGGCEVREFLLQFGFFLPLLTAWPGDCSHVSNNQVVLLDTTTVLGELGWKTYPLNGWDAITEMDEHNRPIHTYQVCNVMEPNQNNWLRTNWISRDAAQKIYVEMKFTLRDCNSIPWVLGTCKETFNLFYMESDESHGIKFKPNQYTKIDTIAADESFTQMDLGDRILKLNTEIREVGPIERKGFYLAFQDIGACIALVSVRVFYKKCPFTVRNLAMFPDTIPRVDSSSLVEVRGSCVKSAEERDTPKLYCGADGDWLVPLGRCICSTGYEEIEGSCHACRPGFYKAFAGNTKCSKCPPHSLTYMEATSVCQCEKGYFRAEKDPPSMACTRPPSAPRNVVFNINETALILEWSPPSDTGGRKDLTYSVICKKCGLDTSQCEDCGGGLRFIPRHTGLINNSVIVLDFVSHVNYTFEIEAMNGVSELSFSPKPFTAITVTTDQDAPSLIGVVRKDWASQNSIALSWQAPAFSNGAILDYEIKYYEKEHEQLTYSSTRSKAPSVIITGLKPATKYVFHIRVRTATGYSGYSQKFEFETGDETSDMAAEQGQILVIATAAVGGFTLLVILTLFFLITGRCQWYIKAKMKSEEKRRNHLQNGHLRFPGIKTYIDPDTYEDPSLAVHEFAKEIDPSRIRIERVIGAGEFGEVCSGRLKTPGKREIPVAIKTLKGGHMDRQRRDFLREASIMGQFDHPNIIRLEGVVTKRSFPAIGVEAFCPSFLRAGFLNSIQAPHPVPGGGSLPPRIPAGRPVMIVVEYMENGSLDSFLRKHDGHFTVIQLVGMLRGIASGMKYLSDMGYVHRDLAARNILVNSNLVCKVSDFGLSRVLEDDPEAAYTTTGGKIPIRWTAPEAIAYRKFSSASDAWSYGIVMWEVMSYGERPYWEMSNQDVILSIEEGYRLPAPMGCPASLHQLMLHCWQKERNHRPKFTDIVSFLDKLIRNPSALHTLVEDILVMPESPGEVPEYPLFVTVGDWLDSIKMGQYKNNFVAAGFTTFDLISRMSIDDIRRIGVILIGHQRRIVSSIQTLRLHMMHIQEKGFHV
Experiment: KINOMEscan competition binding
Details: compound 10.0 µM
Field: numeric (%). Do not append units.

// solved cases for kinase still bound, per cent of control follow
- Structure As Smiles: "CN1CCN(c2ccc(C(=O)Nc3ncc4c(n3)N(C)c3ccccc3C(=O)N4C)cc2)CC1"
  Observed: 100
- Structure As Smiles: "COc1cc(N2CCN(C)CC2)ccc1Nc1ncc2c(n1)Nc1ccccc1NC2=O"
  Observed: 100
- Structure As Smiles: "O=C1NC(=O)/C(=C/c2c[nH]c(=O)c(-c3ccc(N4CCNCC4)nc3)c2)S1"
  Observed: 97
- Structure As Smiles: "CN1C(=O)c2ccccc2N(C)c2nc(NS(=O)(=O)c3ccc(N)cc3)ncc21"
  Observed: 100
- Structure As Smiles: "COc1cc(N2CCN(C)CC2)ccc1Nc1ncc2c(n1)N(C)c1ccccc1N(C)C2=O"
  Observed: 100
- Structure As Smiles: "COc1cc(N2CCN(C)CC2)ccc1Nc1ncc2c(n1)N(C)c1sccc1C(=O)N2C"
  Observed: 97
- Structure As Smiles: "COc1cc(N2CCC(O)CC2)ccc1Nc1ncc2c(n1)N1CCc3cccc(c31)C(=O)N2C"
  Observed: 82

Alright, here's another compound for you.
Exercise: Find the recorded kinase still bound, per cent of control belonging to CN1C(=O)c2ccccc2N(C)c2nc(Nc3ccc(N4CCC(O)CC4)cc3)ncc21 and report it.
Solution: 100

---

Biological target: UniProt:Q6DT37
Sequence (Q6DT37 whole entry, looked up): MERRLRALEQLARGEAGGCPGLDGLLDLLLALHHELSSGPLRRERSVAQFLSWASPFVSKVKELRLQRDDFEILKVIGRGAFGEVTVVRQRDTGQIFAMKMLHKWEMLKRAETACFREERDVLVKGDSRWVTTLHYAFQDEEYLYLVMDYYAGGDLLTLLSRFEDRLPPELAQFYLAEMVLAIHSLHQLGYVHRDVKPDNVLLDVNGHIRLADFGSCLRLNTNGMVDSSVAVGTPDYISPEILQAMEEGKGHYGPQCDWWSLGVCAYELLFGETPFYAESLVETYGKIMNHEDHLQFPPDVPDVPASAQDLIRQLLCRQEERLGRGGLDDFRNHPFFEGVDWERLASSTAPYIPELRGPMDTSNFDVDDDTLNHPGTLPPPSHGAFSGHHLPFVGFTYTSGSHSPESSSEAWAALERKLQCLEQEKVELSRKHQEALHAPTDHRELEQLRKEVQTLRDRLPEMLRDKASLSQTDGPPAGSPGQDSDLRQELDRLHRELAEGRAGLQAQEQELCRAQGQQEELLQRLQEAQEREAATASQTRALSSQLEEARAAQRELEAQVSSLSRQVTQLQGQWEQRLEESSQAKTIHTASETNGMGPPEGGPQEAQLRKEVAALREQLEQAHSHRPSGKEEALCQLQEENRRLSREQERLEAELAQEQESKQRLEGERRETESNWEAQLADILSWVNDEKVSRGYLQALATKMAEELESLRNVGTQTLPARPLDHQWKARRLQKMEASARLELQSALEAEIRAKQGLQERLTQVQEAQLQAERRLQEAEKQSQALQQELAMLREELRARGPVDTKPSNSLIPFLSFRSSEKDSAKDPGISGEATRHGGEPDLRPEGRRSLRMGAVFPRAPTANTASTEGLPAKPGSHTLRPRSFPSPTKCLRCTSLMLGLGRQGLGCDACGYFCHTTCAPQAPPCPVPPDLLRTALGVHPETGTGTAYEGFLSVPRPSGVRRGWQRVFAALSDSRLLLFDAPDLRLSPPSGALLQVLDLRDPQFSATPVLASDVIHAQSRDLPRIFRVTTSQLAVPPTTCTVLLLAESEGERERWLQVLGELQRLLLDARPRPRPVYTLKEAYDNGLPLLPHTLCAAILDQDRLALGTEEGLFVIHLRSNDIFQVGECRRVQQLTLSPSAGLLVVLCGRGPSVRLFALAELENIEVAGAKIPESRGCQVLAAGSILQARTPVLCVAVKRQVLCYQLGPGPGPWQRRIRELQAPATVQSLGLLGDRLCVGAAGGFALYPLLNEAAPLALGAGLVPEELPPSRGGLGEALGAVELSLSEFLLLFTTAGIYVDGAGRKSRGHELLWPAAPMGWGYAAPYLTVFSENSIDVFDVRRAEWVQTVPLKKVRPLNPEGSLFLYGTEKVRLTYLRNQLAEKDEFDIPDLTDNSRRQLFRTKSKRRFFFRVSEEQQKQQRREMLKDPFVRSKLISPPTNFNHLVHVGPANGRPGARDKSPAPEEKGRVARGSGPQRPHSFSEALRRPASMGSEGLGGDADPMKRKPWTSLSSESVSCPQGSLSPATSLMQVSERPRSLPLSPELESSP
Test: KINOMEscan competition binding
Conditions: compound 10.0 µM
kinase still bound, per cent of control listing for selected compounds.
Field: numeric (%). Do not append units.

// solved cases for kinase still bound, per cent of control follow
- Structure As Smiles: "COc1cc(C(=O)NC2CCN(C)CC2)ccc1Nc1ncc2c(n1)N(C1CCCC1)[C@@H]1CCC[C@@H]1C(=O)N2C"
  Measured On: "UniProt:Q6DT37"
  Unit Text: "%"
  kinase still bound, per cent of control: 12
- Structure As Smiles: "COc1cc(N2CCN(C)CC2)ccc1Nc1ncc2c(n1)N(C)c1ccccc1N(C)C2=O"
  Measured On: "UniProt:Q6DT37"
  Unit Text: "%"
  kinase still bound, per cent of control: 100
- Structure As Smiles: "CN1CCN(c2ccc(C(=O)Nc3ncc4c(n3)N(C)c3ccccc3C(=O)N4C)cc2)CC1"
  Measured On: "UniProt:Q6DT37"
  Unit Text: "%"
  kinase still bound, per cent of control: 100
- Structure As Smiles: "CN1C(=O)c2ccccc2N(C)c2nc(Nc3ccc(N4CCC(O)CC4)cc3)ncc21"
  Measured On: "UniProt:Q6DT37"
  Unit Text: "%"
  kinase still bound, per cent of control: 100
- Structure As Smiles: "O=C1NC(=O)/C(=C/c2c[nH]c(=O)c(-c3ccc(N4CCNCC4)nc3)c2)S1"
  Measured On: "UniProt:Q6DT37"
  Unit Text: "%"
  kinase still bound, per cent of control: 88

Exercise: Find the recorded kinase still bound, per cent of control belonging to CN1C(=O)c2ccccc2N(C)c2nc(NS(=O)(=O)c3ccc(N)cc3)ncc21 and report it.
Solution: 100

Exercise: COc1cc(N2CCC(O)CC2)ccc1Nc1ncc2c(n1)N1CCc3cccc(c31)C(=O)N2C , same question.
Solution: 100

Exercise: COc1cc(N2CCN(C)CC2)ccc1Nc1ncc2c(n1)N(C)c1sccc1C(=O)N2C , same question.
Solution: 91

Exercise: COc1cc(N2CCN(C)CC2)ccc1Nc1ncc2c(n1)Nc1ccccc1NC2=O , same question.
Solution: 100

---

Target: PRKX (human) (UniProt P51817)
Sequence (P51817 whole entry, looked up): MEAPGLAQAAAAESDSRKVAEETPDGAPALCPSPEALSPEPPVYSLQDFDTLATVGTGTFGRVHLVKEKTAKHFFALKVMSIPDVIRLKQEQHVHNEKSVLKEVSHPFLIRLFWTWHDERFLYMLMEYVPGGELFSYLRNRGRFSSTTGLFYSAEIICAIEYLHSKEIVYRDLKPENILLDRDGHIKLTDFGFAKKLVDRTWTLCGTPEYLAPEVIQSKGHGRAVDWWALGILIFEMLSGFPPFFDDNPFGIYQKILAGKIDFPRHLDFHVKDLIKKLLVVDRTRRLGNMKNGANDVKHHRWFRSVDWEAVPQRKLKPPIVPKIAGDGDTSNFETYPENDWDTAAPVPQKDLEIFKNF
Test: KINOMEscan competition binding
Settings: compound 10.0 µM
Measured Metric: kinase still bound, per cent of control (%)
Field: numeric (%). Do not append units.

- Structure As Smiles: "CN1C(=O)c2ccccc2N(C)c2nc(NS(=O)(=O)c3ccc(N)cc3)ncc21"
  Measured Metric: "kinase still bound, per cent of control"
  Observed: 94
- Structure As Smiles: "CN1CCN(c2ccc(C(=O)Nc3ncc4c(n3)N(C)c3ccccc3C(=O)N4C)cc2)CC1"
  Measured Metric: "kinase still bound, per cent of control"
  Observed: 86
- Structure As Smiles: "CN1C(=O)c2ccccc2N(C)c2nc(Nc3ccc(N4CCC(O)CC4)cc3)ncc21"
  Measured Metric: "kinase still bound, per cent of control"
  Observed: 93
- Structure As Smiles: "COc1cc(N2CCN(C)CC2)ccc1Nc1ncc2c(n1)N(C)c1sccc1C(=O)N2C"
  Measured Metric: "kinase still bound, per cent of control"
  Observed: 82
- Structure As Smiles: "O=C1NC(=O)/C(=C/c2c[nH]c(=O)c(-c3ccc(N4CCNCC4)nc3)c2)S1"
  Measured Metric: "kinase still bound, per cent of control"
  Observed: 100
- Structure As Smiles: "COc1cc(N2CCN(C)CC2)ccc1Nc1ncc2c(n1)N(C)c1ccccc1N(C)C2=O"
  Measured Metric: "kinase still bound, per cent of control"
  Observed: 83
- Structure As Smiles: "COc1cc(N2CCN(C)CC2)ccc1Nc1ncc2c(n1)Nc1ccccc1NC2=O"
  Measured Metric: "kinase still bound, per cent of control"
  Observed: 100

Exercise: Find the recorded kinase still bound, per cent of control belonging to COc1cc(N2CCC(O)CC2)ccc1Nc1ncc2c(n1)N1CCc3cccc(c31)C(=O)N2C and report it.
Solution: 91
